System: Ba/F3 ERBB2 YVMA
Test: Cell viability assay (CellTiter Glo, 72 hours)
Type: cell-based, mouse
Details: Mus musculus, BaF3, 72 h, Ba/F3 cells engineered to express human ERBB2 YVMA mutant; 72 hours; CellTiter Glo viability; read-out: Ba/F3 ERBB2 YVMA, IC50
Method: Cells were treated with compounds, and cell viability was measured as a metric of kinase inhibition. BT-474, A431, MDA-MB-175VII, NCI-H1781, MCF7, and Ba/F3 cell lines were tested. […] Plates were placed in a 37° C., 5% CO2 incubator for 72 hours. […] 40 μl of CellTiter Glo reagent (Promega) was added to measure the relative level of metabolically active cells by quantifying intracellular ATP concentrations. Plates were incubated for 30 minutes at room temperature, and luminescence was measured. […]
pIC50: −log10 of the molar value.
Listing: pIC50 of selected compounds
observation type: pIC50

>>> endpoint_result("Cc1cc(Nc2ncnc3cc4c(nc23)N2CCN(C(=O)/C=C/[C@H](C)N(C)C)C(CO4)C2)ccc1Oc1ccn2ncnc2c1 (stereo in doubt)")
7.98
>>> endpoint_result("Cc1cc(Nc2ncnc3cc4c(cc23)N2CCN(C(=O)/C=C/CN(C)C)C(CO4)C2)ccc1Oc1ccn2ncnc2c1 (stereo in doubt)")
"< 6.30"
>>> endpoint_result("CC#CC(=O)N1CCN2CC1COc1cc3ncnc(Nc4ccc(Oc5ccn6ncnc6c5)c(C)c4)c3cc12 (stereo in doubt)")
"< 6.30"

====

Listing: IC50 of selected compounds
Molecular target: phosphorylated EGFR (pEGFR) (Homo sapiens (Human))
Sequence (P00533 25-1210): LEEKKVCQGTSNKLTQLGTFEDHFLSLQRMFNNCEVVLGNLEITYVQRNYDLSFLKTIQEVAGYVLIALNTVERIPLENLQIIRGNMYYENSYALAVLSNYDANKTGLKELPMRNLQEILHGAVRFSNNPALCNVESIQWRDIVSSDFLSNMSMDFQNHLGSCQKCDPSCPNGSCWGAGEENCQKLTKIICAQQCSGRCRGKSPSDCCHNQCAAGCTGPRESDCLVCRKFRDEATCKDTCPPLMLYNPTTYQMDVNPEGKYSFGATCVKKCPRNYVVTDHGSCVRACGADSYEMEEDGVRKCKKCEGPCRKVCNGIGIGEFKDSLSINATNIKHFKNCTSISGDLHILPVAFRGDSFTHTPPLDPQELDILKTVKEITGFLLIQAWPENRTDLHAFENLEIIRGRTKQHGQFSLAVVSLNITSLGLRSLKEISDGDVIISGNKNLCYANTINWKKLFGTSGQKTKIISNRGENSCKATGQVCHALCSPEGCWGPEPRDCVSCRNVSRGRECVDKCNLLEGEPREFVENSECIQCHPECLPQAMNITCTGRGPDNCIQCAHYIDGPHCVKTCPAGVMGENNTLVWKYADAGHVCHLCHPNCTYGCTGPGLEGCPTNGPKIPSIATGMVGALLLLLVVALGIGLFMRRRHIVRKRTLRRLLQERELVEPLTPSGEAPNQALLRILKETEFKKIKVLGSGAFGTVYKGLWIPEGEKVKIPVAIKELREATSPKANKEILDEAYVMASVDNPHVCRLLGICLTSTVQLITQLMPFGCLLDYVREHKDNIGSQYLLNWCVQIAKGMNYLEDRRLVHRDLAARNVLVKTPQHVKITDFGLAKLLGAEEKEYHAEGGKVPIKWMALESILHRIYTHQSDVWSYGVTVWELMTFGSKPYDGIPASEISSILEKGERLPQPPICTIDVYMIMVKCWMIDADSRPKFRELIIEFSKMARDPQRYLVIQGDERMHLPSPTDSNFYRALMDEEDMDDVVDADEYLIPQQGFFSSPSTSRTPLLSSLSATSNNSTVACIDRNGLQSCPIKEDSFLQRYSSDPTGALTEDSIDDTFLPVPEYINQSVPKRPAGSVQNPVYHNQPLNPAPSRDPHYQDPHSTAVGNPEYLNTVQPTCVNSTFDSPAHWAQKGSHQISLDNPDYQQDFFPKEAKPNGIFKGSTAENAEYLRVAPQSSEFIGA
Test: Detection of phosphorylated EGFR (pEGFR) by AlphaLISA in A431 cells
Format: cell-based
Details: A431 cells (10% FBS), 4 hours incubation, EGF 30 ng/mL for 10 minutes
observation type: IC50 (nM)

>>> endpoint_result("Cc1cc(Nc2ncnc3cc4c(nc23)N2CCN(C(=O)/C=C/CN(C)C)C(CO4)C2)c(F)cc1Oc1cncc(F)c1 (stereo in doubt)")
337
>>> endpoint_result("Cc1c(Oc2ccn3ncnc3c2)ccc(Nc2ncnc3cc4c(nc23)N2CCN(C(=O)/C=C/CN(C)C)C(CO4)C2)c1F (stereo in doubt)")
309
>>> endpoint_result("CNC/C=C/C(=O)N1CCN2CC1COc1cc3ncnc(Nc4cc(C)c(Oc5ccn6ncnc6c5)cc4F)c3nc12 (stereo in doubt)")
2650
>>> endpoint_result("Cc1cc(Nc2ncnc3cc4c(nc23)N2CCN(C(=O)/C=C/CN(C)C)C(CO4)C2)ccc1Oc1ccn2ncnc2c1 (stereo in doubt) [Compound 10]")
3040

====

Target: phosphorylated EGFR (pEGFR) (Homo sapiens (Human))
Assay: Detection of phosphorylated EGFR (pEGFR) by AlphaLISA in A431 cells
Settings: A431 cells (10% FBS), 4 hours incubation, EGF 30 ng/mL for 10 minutes
pIC50: −log10 of the molar value.
observation type: pIC50

>>> endpoint_result("Cc1cc(Nc2ncnc3cc4c(nc23)N2CCN(C(=O)/C=C/CN(C)C)C(CO4)C2)ccc1Oc1cncc(F)c1 (stereo in doubt)")
6.75
>>> endpoint_result("Cc1cc(Nc2ncnc3cc4c(nc23)N2CCN(C(=O)/C=C/CN(C)C)C(CO4)C2)ccc1Oc1cccnc1 (stereo in doubt)")
6.47
>>> endpoint_result("CN(C)C/C=C/C(=O)N1CCN2CC1COc1cc3ncnc(Nc4ccc(Oc5ccn6ncnc6c5)c(F)c4)c3nc12 (stereo in doubt)")
5.21
>>> endpoint_result("CN(C)C/C=C/C(=O)N1CCN2C[C@H]1COc1cc3ncnc(Nc4cc(F)c(Oc5ccn6ncnc6c5)cc4F)c3nc12")
5.48

====

Listing: log10(IC50) of selected compounds
Target: phosphorylated EGFR (pEGFR) (Homo sapiens (Human))
Experiment: Detection of phosphorylated EGFR (pEGFR) by AlphaLISA in A431 cells
Conditions: A431 cells (10% FBS), 4 hours incubation, EGF 30 ng/mL for 10 minutes
observation type: log10(IC50) (log10 of the value in µM)

>>> endpoint_result("CC#CC(=O)N1CCN2CC1COc1cc3ncnc(Nc4ccc(Oc5ccn6ncnc6c5)c(C)c4)c3cc12 (stereo in doubt) [Compound 12]")
0.85
>>> endpoint_result("Cc1cc(Nc2ncnc3cc4c(nc23)N2CCN(C(=O)/C=C/[C@@H]3CCCN3C)C(CO4)C2)ccc1Oc1ccn2ncnc2c1 (stereo in doubt)")
0.94
>>> endpoint_result("[2H]C([2H])(/C=C/C(=O)N1CCN2CC1COc1cc3ncnc(Nc4cc(C)c(Oc5ccn6ncnc6c5)cc4F)c3nc12)N(C)C (stereo in doubt)")
-0.06
>>> endpoint_result("C=CC(=O)N1CCN2CC1COc1cc3ncnc(Nc4ccc(Oc5ccn6ncnc6c5)c(C)c4)c3cc12 (stereo in doubt) [Compound 4]")
0.27
>>> endpoint_result("[2H]C([2H])([2H])N(C/C=C/C(=O)N1CCN2CC1COc1cc3ncnc(Nc4ccc(Oc5ccn6ncnc6c5)c(C)c4)c3nc12)C([2H])([2H])[2H] (stereo in doubt)")
0.21
>>> endpoint_result("C=CC(=O)N1CCN2CC1COc1cc3ncnc(Nc4ccc(Oc5ccn6ccnc6c5)c(C)c4)c3nc12 (stereo in doubt)")
-0.79

====

Biological target: UniProtKB P04626
Sequence (P04626 23-1255): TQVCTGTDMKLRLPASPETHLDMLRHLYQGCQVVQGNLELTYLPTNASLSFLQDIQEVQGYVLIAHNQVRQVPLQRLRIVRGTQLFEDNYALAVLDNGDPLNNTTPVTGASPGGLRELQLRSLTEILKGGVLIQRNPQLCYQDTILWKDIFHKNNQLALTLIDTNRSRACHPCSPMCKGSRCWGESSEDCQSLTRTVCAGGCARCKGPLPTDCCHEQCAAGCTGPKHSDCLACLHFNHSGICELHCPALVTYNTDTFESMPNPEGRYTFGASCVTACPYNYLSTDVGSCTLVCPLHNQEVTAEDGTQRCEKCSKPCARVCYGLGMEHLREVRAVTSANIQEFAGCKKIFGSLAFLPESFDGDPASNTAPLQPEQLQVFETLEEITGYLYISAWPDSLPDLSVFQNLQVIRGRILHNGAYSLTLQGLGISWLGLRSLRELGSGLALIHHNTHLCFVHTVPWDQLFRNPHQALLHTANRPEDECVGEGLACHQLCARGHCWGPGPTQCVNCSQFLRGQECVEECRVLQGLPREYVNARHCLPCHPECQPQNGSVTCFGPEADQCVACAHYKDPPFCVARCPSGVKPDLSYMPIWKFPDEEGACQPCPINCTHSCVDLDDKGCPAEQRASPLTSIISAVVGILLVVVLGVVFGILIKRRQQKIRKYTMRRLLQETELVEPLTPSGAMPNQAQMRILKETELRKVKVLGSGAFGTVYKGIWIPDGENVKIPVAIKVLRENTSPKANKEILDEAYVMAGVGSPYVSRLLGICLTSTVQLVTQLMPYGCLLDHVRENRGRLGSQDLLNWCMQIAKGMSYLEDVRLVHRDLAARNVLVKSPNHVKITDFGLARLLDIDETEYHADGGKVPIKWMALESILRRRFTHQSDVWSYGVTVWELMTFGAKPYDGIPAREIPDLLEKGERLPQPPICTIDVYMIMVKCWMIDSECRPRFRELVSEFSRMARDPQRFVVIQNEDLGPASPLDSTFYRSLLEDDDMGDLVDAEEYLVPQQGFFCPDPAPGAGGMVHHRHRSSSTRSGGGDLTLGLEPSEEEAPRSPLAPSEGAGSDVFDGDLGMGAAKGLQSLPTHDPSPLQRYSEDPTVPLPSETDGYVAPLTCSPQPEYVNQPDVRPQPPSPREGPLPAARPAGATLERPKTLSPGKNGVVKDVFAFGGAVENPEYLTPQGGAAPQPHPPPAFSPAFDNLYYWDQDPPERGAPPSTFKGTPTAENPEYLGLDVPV
Experiment: Detection of phosphorylated ERBB2 (pERBB2) by ELISA in BT-474 cells
Conditions: four hours incubation with compound
observation type: log10(IC50) (log10 of the value in nM)

>>> endpoint_result("Cc1cc(Nc2ncnc3cc4c(c(F)c23)N2CCN(C(=O)/C=C/CN(C)C)C(CO4)C2)ccc1Oc1ccn2ncnc2c1 (stereo in doubt)")
1.27
>>> endpoint_result("[2H]C([2H])([2H])N(C/C=C/C(=O)N1CCN2CC1COc1cc3ncnc(Nc4cc(C)c(Oc5ccn6ncnc6c5)cc4F)c3nc12)C([2H])([2H])[2H] (stereo in doubt)")
0.84
>>> endpoint_result("CC#CC(=O)N1CCN2CC1COc1cc3ncnc(Nc4ccc(Oc5ccc6c(c5)ncn6C)c(C)c4)c3nc12 (stereo in doubt)")
2.38
>>> endpoint_result("Cc1cc(Nc2ncnc3cc4c(nc23)N2CCN(C(=O)/C=C/CN(C)C)C(CO4)C2)ccc1Oc1ccn2ncnc2c1 (stereo in doubt) [Compound 15]")
2.54
>>> endpoint_result("[2H]C([2H])([2H])N(C([2H])([2H])[2H])C([2H])([2H])/C=C/C(=O)N1CCN2CC1COc1cc3ncnc(Nc4cc(C)c(Oc5ccn6ncnc6c5)cc4F)c3nc12 (stereo in doubt)")
0.95
>>> endpoint_result("Cc1cc(Nc2ncnc3ccc(NC4=NC(C)(C)CO4)cc23)ccc1Oc1ccn2ncnc2c1 [Tucatinib, tucatinib, reference compound]")
1.08
>>> endpoint_result("C=CC(=O)N1CCN2CC1COc1cc3ncnc(Nc4ccc(Oc5ccc6c(c5)ncn6C)c(C)c4)c3nc12 (stereo in doubt)")
1.64
>>> endpoint_result("CN(C)C/C=C/C(=O)N1CCN2CC1COc1cc3ncnc(Nc4ccc(Oc5ccn6ncnc6c5)cc4F)c3nc12 (stereo in doubt)")
1.03
>>> endpoint_result("Cc1cc(Nc2ncnc3cc4c(nc23)N2CCN(C(=O)/C=C/C3CN(C)C3)C(CO4)C2)ccc1Oc1ccn2ncnc2c1 (stereo in doubt)")
1.44
>>> endpoint_result("CCc1ccc(Oc2ccc(Nc3ncnc4cc5c(nc34)N3CCN(C(=O)/C=C/CN(C)C)C(CO5)C3)cc2C)cn1 (stereo in doubt)")
2.10
>>> endpoint_result("[2H]C([2H])(/C=C/C(=O)N1CCN2CC1COc1cc3ncnc(Nc4cc(C)c(Oc5ccn6ncnc6c5)cc4F)c3nc12)N(C)C (stereo in doubt)")
0.74
>>> endpoint_result("C=CC(=O)N1CCN2CC1COc1cc3ncnc(Nc4ccc(Oc5ccc(C)nc5)c(C)c4)c3nc12 (stereo in doubt)")
1.32
>>> endpoint_result("Cc1cc(Nc2ncnc3cc4c(nc23)N2CCN(C(=O)/C=C/CN(C)C)CC(CO4)C2)ccc1Oc1ccn2ncnc2c1 (centres unmarked)")
1.52
>>> endpoint_result("Cc1cc(Nc2ncnc3cc4c(nc23)N2CCN(C(=O)/C=C/[C@H]3CCCN3C)C(CO4)C2)ccc1Oc1ccn2ncnc2c1 (stereo in doubt)")
1.16
>>> endpoint_result("Cc1cc(Nc2ncnc3cc4c(nc23)N2CCN(C(=O)/C=C/CN(C)C)C(CO4)C2)ccc1Oc1ccn2ncnc2c1 (stereo in doubt) [Compound 10]")
0.72
>>> endpoint_result("Cc1cc(Nc2ncnc3cc4c(nc23)N2CCN(C(=O)/C=C/[C@@H]3CCCN3C)C(CO4)C2)ccc1Oc1ccn2ncnc2c1 (stereo in doubt)")
1.03
>>> endpoint_result("Cc1cc(Nc2ncnc3cc4c(nc23)N2CCN(C(=O)/C=C/[C@@H](C)N(C)C)C(CO4)C2)c(F)cc1Oc1ccn2ncnc2c1 (stereo in doubt)")
1.86
>>> endpoint_result("Cc1cc(Nc2ncnc3cc4c(nc23)N2CCN(C(=O)/C=C/CN(C)C)C(CO4)C2)c(F)cc1Oc1cncc(F)c1 (stereo in doubt)")
1.56
>>> endpoint_result("Cc1cc(Nc2ncnc3cc4c(cc23)N2CCN(C(=O)/C=C/CN(C)C)C(CO4)C2)ccc1Oc1ccn2ncnc2c1 (stereo in doubt) [Compound 9]")
1.28
>>> endpoint_result("CN(C)C/C=C/C(=O)N1CCN2CC1COc1cc3ncnc(Nc4cc(Cl)c(Oc5ccn6ncnc6c5)cc4F)c3nc12 (stereo in doubt)")
0.94
>>> endpoint_result("Cc1cc(Nc2ncnc3cc4c(nc23)N2CCN(C(=O)/C=C/[C@H]3CCCN3C)C(CO4)C2)c(F)cc1Oc1ccn2ncnc2c1 (stereo in doubt)")
1.39
>>> endpoint_result("Cc1c(Oc2ccn3ncnc3c2)ccc(Nc2ncnc3cc4c(nc23)N2CCN(C(=O)/C=C/CN(C)C)C(CO4)C2)c1F (stereo in doubt)")
0.74
>>> endpoint_result("CNC/C=C/C(=O)N1CCN2CC1COc1cc3ncnc(Nc4cc(C)c(Oc5ccn6ncnc6c5)cc4F)c3nc12 (stereo in doubt)")
1.50

Where do the numbers come from? From patent US20230382923A1.
